Value source: paper PMC8151276

# tested-on: XCR1 (Homo sapiens, UniProt P46094)
# Construct: purchased Promega (in-house HiBiT-GPCR construct library, NanoBRET)
# Sequence (P46094 1-333): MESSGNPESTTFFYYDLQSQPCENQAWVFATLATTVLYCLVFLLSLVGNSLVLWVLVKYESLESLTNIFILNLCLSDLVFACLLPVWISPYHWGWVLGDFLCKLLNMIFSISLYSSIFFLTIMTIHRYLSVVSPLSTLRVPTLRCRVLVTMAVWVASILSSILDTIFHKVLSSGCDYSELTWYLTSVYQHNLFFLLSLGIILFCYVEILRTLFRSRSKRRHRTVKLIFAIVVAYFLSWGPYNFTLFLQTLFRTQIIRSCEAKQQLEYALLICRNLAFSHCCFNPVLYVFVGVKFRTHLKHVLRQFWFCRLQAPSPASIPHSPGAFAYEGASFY
# protocol-summary: NanoBRET screen HiBiT-XCR1 in HEK293
# Assay type: binding
# measurement-conditions: XCR1; tracer 1μM
recorded-metric: NanoBRET Fold Response
// keep it numeric: no unit symbol after the value

Observe how each entry below is paired with its result.
Cc1cc2c(s1)Nc1ccccc1N=C2N1CCN(CCCNC(=O)CCOCCOCCOCCOCCNC(=O)CCc2ccc3n2[B-](F)(F)[N+]2=C(c4ccc[nH]4)C=CC2=C3)CC1 [Olanzapine-a-2-NB590]    1.27
O=C(CCc1ccc2n1[B-](F)(F)[N+]1=C(c3ccc[nH]3)C=CC1=C2)NCc1ccc(C(=O)NCCOCCC(=O)N[C@@H]2CC[C@@]3(O)[C@H]4Cc5ccc(O)c6c5[C@@]3(CCN4CC3CC3)[C@H]2O6)cc1 [Naltrexone-3-NB590]    0.61

Lookup result for COc1ccccc1N1CCN(CCCCN2C(=O)c3ccc(CNC(=O)CCOCCNC(=O)c4ccc(CNC(=O)CCc5ccc6n5[B-](F)(F)[N+]5=C(c7ccc[nH]7)C=CC5=C6)cc4)cc3C2=O)CC1 [NAN-190-3-NB590] ; measured NanoBRET Fold Response: 1.34
